Sourced from PubChem BioAssay (Tox21)

# TEST_PROTOCOL: qHTS assay to identify small molecule agonists of the sonic hedgehog signaling (Shh) pathway - cell viability counter screen (AID 1259366); further: nearly all actives have a fitted effect of over 50% in size
# CONDITION_NOTES: NIH/3T3 Gli1-Luc viability, CellTiter-Fluor, 24 h; series mostly up to 92.4 µM
Inconclusive results are not listed. Activity calls are given as the source filed them. The call rests on the fitted dose curve; in most records, active means well fitted cell-killing curve with a large enough effect in the repeat runs; inconclusive means weak or mixed curves, or effect the other way; inactive means flat fitted curve, though single readings scatter.
Could you please pick one outcome from this set? active, inactive

>>> class("CC(C)Oc1cccc(NC(=O)c2ccccc2C(F)(F)F)c1")
"inactive"
>>> class("CC(=O)c1cc(C(C)(C)C)cc2c1CCC2(C)C")
"inactive"
>>> class("C[C@@H]1CC[C@@]2(OC1)O[C@H]1[C@@H](O)[C@H]3[C@@H]4CC[C@H]5C[C@@H](O[C@@H]6O[C@H](CO)[C@H](O[C@@H]7O[C@H](CO)[C@@H](O)[C@H](O[C@@H]8OC[C@@H](O)[C@H](O)[C@H]8O)[C@H]7O[C@@H]7O[C@H](CO)[C@@H](O)[C@H](O[C@@H]8O[C@H](CO)[C@@H](O)[C@H](O)[C@H]8O)[C@H]7O)[C@H](O)[C@H]6O)[C@H](O)C[C@]5(C)[C@H]4CC[C@]3(C)[C@H]1[C@@H]2C")
"active"
>>> class("O=CC(Br)(Br)Br")
"active"
>>> class("O=C(CBr)c1ccc(O)cc1")
"inactive"
>>> class("Oc1cc(Cl)c(Cl)c(Cl)c1")
"inactive"
>>> class("CCCCN(CCCC)C(=S)[S-].CCCCN(CCCC)C(=S)[S-].[Zn+2]")
"active"
>>> class("CC(C)OS(C)(=O)=O")
"inactive"

Could you please tell me the result logged for `N#C/C=C/c1ccccc1` in this assay?
inactive

Assay outcome for `Clc1ccc(Oc2ccccc2)cc1` : what was it?
inactive

----------
# TEST_PROTOCOL: A CellTox Green Cytotoxicity Assay to monitor cytotoxicity in HEK293 cells - 24 hour (AID 1224875); further: nearly all actives have a fitted effect of over 45% in size; further: potency means the concentration at half of the fitted maximal effect
# CONDITION_NOTES: CellTox Green fluorescence; series mostly up to 76.8 µM
Records with an inconclusive call do not appear. Activity calls are given as the source filed them. Calls follow the shape of the dose curve; as a rule, active = well fitted activation curve with a large enough effect in the repeat runs; inconclusive = weak or mixed curves; inactive = flat fitted curve, though single readings scatter.
READOUT_KIND: Potency

>>> result("Fc1ccc(Oc2ccnc3cc(Cl)cc(Cl)c23)cc1")
"inactive"
>>> result("COC12CC[C@@]3(C[C@@H]1C(C)(O)C(C)(C)C)[C@H]1Cc4ccc(O)c5c4[C@@]3(CCN1CC1CC1)[C@H]2O5 (stereo not given in full)")
"38.6 µM (active)"
>>> result("S=C(SSC(=S)N1CCCCC1)N1CCCCC1")
"inactive"
>>> result("Fc1cccc(Cl)c1CCl")
"inactive"
>>> result("CC(C)(COCC1CO1)COCC1CO1 (stereo not given)")
"inactive"

Looking up `[CH3][Hg][Cl]` , I found its Potency recorded as 7.74 µM (active)

// `NC(=O)CCl` : Potency value = inactive

Documented Potency of `Nc1ccc(Cc2ccc(N)c(Cl)c2)cc1Cl` : inactive

Potency recorded for this compound, `Oc1ccc(C(=C(Cl)Cl)c2ccc(O)cc2)cc1` , is inactive

For reference, reported Potency for C[C@H]1CC[C@@H]2[C@@H](C)[C@H]3[C@H](C[C@H]4[C@@H]5CC=C6CC(O[C@@H]7O[C@H](CO)[C@H](O)[C@H](O[C@@H]8O[C@H](CO)[C@@H](O)[C@H](O)[C@H]8O)[C@H]7O[C@H]7O[C@@H](C)[C@H](O)[C@@H](O)[C@H]7O)CC[C@]6(C)[C@H]5CC[C@]34C)N2C1 (stereo not given in full) stands at 4.51 µM (active)

----------
# SYSTEM: Cytochrome P450 3A4 (Homo sapiens) (UniProt P08684)
# Sequence (P08684 whole entry, looked up): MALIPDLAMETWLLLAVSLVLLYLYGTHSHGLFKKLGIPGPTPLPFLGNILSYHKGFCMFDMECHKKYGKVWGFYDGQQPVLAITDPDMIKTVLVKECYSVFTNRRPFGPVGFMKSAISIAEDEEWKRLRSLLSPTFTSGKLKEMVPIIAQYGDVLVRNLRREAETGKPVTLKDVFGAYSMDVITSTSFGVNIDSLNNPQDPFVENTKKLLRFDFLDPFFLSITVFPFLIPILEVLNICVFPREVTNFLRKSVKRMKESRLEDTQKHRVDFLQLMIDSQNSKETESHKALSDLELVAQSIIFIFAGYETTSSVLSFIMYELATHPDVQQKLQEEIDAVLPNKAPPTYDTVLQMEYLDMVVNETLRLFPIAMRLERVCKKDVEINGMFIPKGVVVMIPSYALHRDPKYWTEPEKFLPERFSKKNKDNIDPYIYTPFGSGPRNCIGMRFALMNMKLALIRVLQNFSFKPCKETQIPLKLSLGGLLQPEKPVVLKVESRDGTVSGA
# TEST_PROTOCOL: Cytochrome P450 Family 3 Subfamily A Member 4 (CYP3A4) small molecule antagonists: luciferase reporter qHTS assay (AID 1671201); further: nearly all actives have a fitted effect of over 50% in size
# CONDITION_NOTES: P450-Glo CYP3A4 enzyme, luciferin luminescence, 1 h; series mostly up to 115 µM
Inconclusive results are not listed. The source made the active and inactive calls. Calls come from the whole dose curve; as a rule, active = well fitted inhibition curve with a large enough effect in the repeat runs; inconclusive = weak or mixed curves; inactive = no such curve, though single readings can be large or run the other way.
Assign a class; possible classes are active, inactive

Assay result, entry `COC(=O)N(C(=O)N1CO[C@@]2(C(=O)OC)Cc3cc(Cl)ccc3C2=N1)c1ccc(OC(F)(F)F)cc1` — outcome?
active

Which outcome was entered for the molecule `Fc1ccc(Oc2ccnc3cc(Cl)cc(Cl)c23)cc1` in this test?
active

Name the outcome recorded for `CS(=O)(=O)c1ccc(C(=O)C2C(=O)CCCC2=O)c([N+](=O)[O-])c1` in the assay.
inactive

// return assay outcome for CC(C)(COCC1CO1)COCC1CO1 (configuration not stated)
inactive

// outcome(item) with item = `Cc1cc(Cl)ccc1O[C@H](C)C(=O)O`
inactive

----------
# SYSTEM: Nuclear receptor subfamily 1 group I member 2 (Homo sapiens) (UniProt O75469)
# Sequence (O75469 whole entry, looked up): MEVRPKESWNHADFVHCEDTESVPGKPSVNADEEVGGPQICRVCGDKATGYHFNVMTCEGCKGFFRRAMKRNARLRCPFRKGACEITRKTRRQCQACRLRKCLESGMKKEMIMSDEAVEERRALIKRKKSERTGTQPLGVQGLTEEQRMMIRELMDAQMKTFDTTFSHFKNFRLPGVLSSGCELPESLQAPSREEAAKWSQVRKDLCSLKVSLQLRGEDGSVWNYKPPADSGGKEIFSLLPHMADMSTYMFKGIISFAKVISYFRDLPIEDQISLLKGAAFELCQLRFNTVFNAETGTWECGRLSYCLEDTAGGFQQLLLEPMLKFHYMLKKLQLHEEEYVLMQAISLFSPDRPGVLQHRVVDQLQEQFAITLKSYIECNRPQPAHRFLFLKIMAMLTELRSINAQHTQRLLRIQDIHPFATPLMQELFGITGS
# TEST_PROTOCOL: Human pregnane X receptor (PXR) small molecule agonists, qHTS assay (AID 1346982); further: nearly all actives have a fitted effect of over 35% in size
# CONDITION_NOTES: PXR-Luc HepG2, CYP3A4 luciferase reporter, 24 h; series mostly up to 92.4 µM
Inconclusive results are not listed. Calls of active or inactive are those of the source. Calls follow the shape of the dose curve; as a rule, active = well fitted activation curve with a large enough effect in the repeat runs; inconclusive = weak or mixed curves; inactive = no such curve, though single readings can be large or run the other way.
// classify into active, inactive

Field: example entries. Status: answers known.
>>> class("CCCCCCCCCC[N+](C)(C)CCCCCCCCCC")
"inactive"
>>> class("Oc1ccc(C2(c3ccc(O)cc3)CCCCC2)cc1")
"active"
>>> class("Nc1c(Oc2ccccc2)cc(O)c2c1C(=O)c1ccccc1C2=O")
"active"
>>> class("ClCc1ccc(Cl)cc1Cl")
"inactive"
>>> class("CCOP(=S)(OCC)SCCS(=O)(=O)CC")
"inactive"
>>> class("Oc1cc(Cl)c(Cl)c(Cl)c1")
"active"
>>> class("[CH3][Hg][Cl]")
"inactive"
>>> class("CCC(C)c1cc([N+](=O)[O-])cc([N+](=O)[O-])c1OC(=O)C=C(C)C (stereo unspecified)")
"active"

Test call, this molecule: BrCC(Br)c1ccccc1 (stereo unspecified)
inactive

Entry `Cc1cc(C)c(C2=C(OC(=O)CC(C)(C)C)C3(CCCC3)OC2=O)c(C)c1` : call = ?
inactive

Give the logged outcome of this assay for the following molecule: `OC(c1ccc(Cl)cc1)(c1ccc(Cl)cc1)C(Cl)(Cl)Cl`
active

Each molecule tested received a call. Report the one for COC12CC[C@@]3(C[C@@H]1C(C)(O)C(C)(C)C)[C@H]1Cc4ccc(O)c5c4[C@@]3(CCN1CC1CC1)[C@H]2O5 (stereo partly specified) .
active

Would you mind telling me which call this test gave `Oc1ccc(C(=C(Cl)Cl)c2ccc(O)cc2)cc1` ?
active

Query: recorded result category for `CCCOCC(=Nc1ccc(Cl)cc1C(F)(F)F)n1ccnc1` in this test
active

Tell me the recorded outcome of this test for `CSCCCN=C=S` .
inactive

What did this assay record as the result for `CCCCOCN(C(=O)CCl)c1c(CC)cccc1CC` ?
active

Any idea what this test logged for `NC(=O)CCl` ?
inactive

----------
# SYSTEM: Luciferin 4-monooxygenase (Photinus pyralis)
# TEST_PROTOCOL: qHTS assay to identify small molecule inhibitors of firefly luciferase (AID 1224835); further: nearly all actives have a fitted effect of over 25% in size
# CONDITION_NOTES: purified P. pyralis luciferase, luminescence inhibition; series mostly up to 115 µM
# Excerpt: U.S. Tox21 Program National Center for Advancing Translational Sciences [NCATS] NIH Chemical Genomics Center [NCGC] U.S. Environmental Protection Agency [EPA] National Institutes of Environmental Health Sciences [NIEHS] National Toxicology Program [NTP] U.S. Food and Drug Administration [FDA] Tox21 Assay Overview: Firefly (Photinus pyralis) luciferase is one of the most commonly used transcriptional reporters. […]
Records with an inconclusive call do not appear. Activity calls are given as the source filed them. The call rests on the fitted dose curve; in most records, active means well fitted inhibition curve with a large enough effect in the repeat runs; inconclusive means weak or mixed curves; inactive means flat fitted curve, though single readings scatter.
Assign a class; possible classes are active, inactive

>>> class("CCOCn1c(-c2ccc(Cl)cc2)c(C#N)c(Br)c1C(F)(F)F")
"inactive"

Assay outcome for `CC(C)N1C(=O)N(c2ccccc2)CSC1=NC(C)(C)C` : what was it?
inactive

Hey, what did the test say about C[CH2][Hg][N]1C(=O)C2C(C1=O)C1(Cl)C(Cl)=C(Cl)C2(Cl)C1(Cl)Cl (stereo not given) ?
active

Which outcome did this test record for the compound `CC(C)CCCCCOC(=O)c1ccccc1C(=O)OCCCCCC(C)C` ?
inactive

Recorded test outcome, item COc1cc(N)c(Cl)cc1C(=O)NC1CN2CCC1CC2 (stereo not given)
inactive

Hi, do you know how CC1CCC(C(C)C)C(OC(=O)c2ccccc2N)C1 (stereo not given) came out in this test?
inactive

Could you please tell me the result logged for `CCc1ccccc1C` in this assay?
inactive

State the result this test recorded for `CC(C)(c1ccc(O)c(-c2ccccc2)c1)c1ccc(O)c(-c2ccccc2)c1` .
inactive

For `C[C@@H]1CC[C@@]2(OC1)O[C@H]1[C@@H](O)[C@H]3[C@@H]4CC[C@H]5C[C@@H](O[C@@H]6O[C@H](CO)[C@H](O[C@@H]7O[C@H](CO)[C@@H](O)[C@H](O[C@@H]8OC[C@@H](O)[C@H](O)[C@H]8O)[C@H]7O[C@@H]7O[C@H](CO)[C@@H](O)[C@H](O[C@@H]8O[C@H](CO)[C@@H](O)[C@H](O)[C@H]8O)[C@H]7O)[C@H](O)[C@H]6O)[C@H](O)C[C@]5(C)[C@H]4CC[C@]3(C)[C@H]1[C@@H]2C` , what call appears in the results of this test?
inactive

Dear colleague, could you share the recorded outcome for `Oc1ccc(C2(c3ccc(O)cc3)c3ccccc3-c3ccccc32)cc1` when you have a moment?
inactive
